All values here come from the supplement of paper PMC3545927.

Molecular target: furin, P09958;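 further: purified furin at 1:10 enzyme:substrate in 50 mM HEPES pH 7.5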
Sequence (P09958 whole entry): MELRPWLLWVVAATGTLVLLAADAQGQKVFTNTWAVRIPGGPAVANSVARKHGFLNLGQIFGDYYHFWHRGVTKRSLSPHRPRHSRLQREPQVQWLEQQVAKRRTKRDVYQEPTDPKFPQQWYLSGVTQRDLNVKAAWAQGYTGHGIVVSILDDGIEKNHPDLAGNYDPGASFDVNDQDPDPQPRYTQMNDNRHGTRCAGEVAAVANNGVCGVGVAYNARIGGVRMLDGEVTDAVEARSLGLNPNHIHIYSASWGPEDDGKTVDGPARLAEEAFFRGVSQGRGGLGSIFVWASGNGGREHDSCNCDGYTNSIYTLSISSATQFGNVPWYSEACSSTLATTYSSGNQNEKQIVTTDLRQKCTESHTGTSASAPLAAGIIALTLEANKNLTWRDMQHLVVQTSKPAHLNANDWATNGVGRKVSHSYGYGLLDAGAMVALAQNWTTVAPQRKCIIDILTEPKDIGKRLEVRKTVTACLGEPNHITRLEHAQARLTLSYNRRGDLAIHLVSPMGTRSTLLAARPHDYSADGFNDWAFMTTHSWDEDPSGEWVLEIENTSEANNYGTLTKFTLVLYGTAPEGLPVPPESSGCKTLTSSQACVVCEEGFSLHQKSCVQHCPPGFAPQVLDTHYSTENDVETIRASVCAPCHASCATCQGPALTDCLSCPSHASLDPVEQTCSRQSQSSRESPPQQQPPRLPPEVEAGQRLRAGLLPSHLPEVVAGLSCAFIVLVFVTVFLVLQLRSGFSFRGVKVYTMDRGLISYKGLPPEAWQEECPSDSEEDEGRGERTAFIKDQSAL
Assay: furin cleavage Z-score vs untreated control; higher = more cleavage, active = 3.5 or more, inactive = 1 or less, 8 variable residues between constant flanks
Conditions: 30 min
Some of the results follow. The true hit rate is not given.
Classes used: active, inactive

- CAKQKALGLLAGNASASA [HC1025]: inactive
- CAKERRSKRDAGNASASA [FS-934]: active
- CASWGRVWRAAGNASASA [FS-1420]: inactive
- CARKRRVLTPAGNASASA [FS-2979]: inactive
- CASMVGNWAKAGNASASA [HC342]: inactive
- CAPEFFTELDAGNASASA [HC1220]: inactive
- CAREKKADRDAGNASASA [FS-2913]: inactive
- CAGLLRFCALAGNASASA [HC619]: inactive
- CARSRKAKEEAGNASASA [FS-2186]: inactive
- CATDNLKCPCAGNASASA [HC1214]: inactive
- CAKHQRAKRAAGNASASA [FS-1130]: active
- CAREKRGLFGAGNASASA [FU1]: inactive
- CAREKRFCTGAGNASASA [FS-2329]: active
- CAREKRGPSGAGNASASA [FS-3153]: inactive
- CARSRRDFGLAGNASASA [FS-2310]: active
- CARPLRGVSGAGNASASA [FS-3018]: inactive
- CAFKIRMYVGAGNASASA [HC474]: inactive
